- conditionsUsed: in dimethyl carbonate, 298.15 K
valueType: solubility (mole fraction)

- smilesString: "O=C(O)CCCc1c[nH]c2ccccc12"
  valueObserved: 0.0354

====

- conditionsUsed: in n-butyl acetate, 288.15 K
valueType: solubility (mole fraction)

- smilesString: "O=C(O)CCCc1c[nH]c2ccccc12"
  valueObserved: 0.0645

====

- conditionsUsed: in isopropyl acetate, 288.15 K

- smilesString: "O=C(O)CCCc1c[nH]c2ccccc12"
  solubility (mole fraction): 0.0628

====

- conditionsUsed: in n-pentanol, 323.15 K
valueType: solubility (mole fraction)

- smilesString: "O=C(O)CCCc1c[nH]c2ccccc12"
  valueObserved: 0.124

// provenance: BigSolDB 2.1
